# Test system: wild type IIIB
# experimental-details: Single cycle infectivity assay in HeLa P4-2 cells, wild type virus
# Type: cell-based, HIV
# condition-parameters: HeLa P4-2 cells, single cycle infectivity, wild type IIIB; read-out: wild type IIIB IC50
recorded-metric: pIC50
Please keep in mind that pIC50 is minus log10 of the molar concentration; only the number is needed.

{"compound": "CN(C)C(=O)C(=O)N(C)C1COCCn2c1nc(C(=O)NCc1ccc(F)cc1)c(O)c2=O (single isomer, unassigned; (-)) [Compound W, reference compound]", "target-or-test-system": "wild type IIIB", "observed": 7.59}
{"compound": "CC1(C)OCCn2c1nc(C(=O)NCc1ccc(F)cc1)c(O)c2=O [Compound Z, reference compound]", "target-or-test-system": "wild type IIIB", "observed": 7.47}
{"compound": "COC1(C)CCC(N(C)C(=O)C(=O)N(C)C)c2nc(C(=O)NCc3ccc(F)c(C)c3)c(O)c(=O)n2C1 (single isomer, unassigned) [Compound 2C]", "target-or-test-system": "wild type IIIB", "observed": 8.10}

Okay, now this compound:
Prompt line: Return reported pIC50; argument: COC1(C)CCC(N(C)C(=O)C(=O)N(C)C)c2nc(C(=O)NCc3ccc(F)c(C)c3)c(O)c(=O)n2C1 (single isomer, unassigned) [Compound 2D]
Response line: 7.64

---

# Tested on: virus containing N155H mutation in the integrase gene
# condition-parameters: k = IC50(mutant)/IC50(wild type)
# reported Number of fold shift in IC50 versus wild type IIIB, N155H; entries follow
Answer using only a numeral; do not append any unit.

Prompt line: Return reported Number of fold shift in IC50 versus wild type IIIB, N155H; argument: "Cc1cc(CNC(=O)c2nc3n(c(=O)c2O)CC(C)(C)CC[C@H]3N(C)C(=O)C(=O)N(C)C)ccc1F"
Response line: 1

Prompt line: Return reported Number of fold shift in IC50 versus wild type IIIB, N155H; argument: "CC[C@@H]1COC[C@H](N(C)C(=O)C(=O)N(C)C)c2nc(C(=O)NCc3ccc(F)cc3)c(O)c(=O)n21"
Response line: 7

Prompt line: Return reported Number of fold shift in IC50 versus wild type IIIB, N155H; argument: Cc1nnc(C(=O)NC(C)(C)c2nc(C(=O)NCc3ccc(F)cc3)c(O)c(=O)n2C)o1 [Compound X, raltegravir, reference compound]
Response line: 13

---

# System: virus containing N155H mutation in the integrase gene
# condition-parameters: k = IC50(mutant)/IC50(wild type)
# reported Number of fold shift in IC50 versus wild type IIIB, N155H; entries follow

The following compounds have reported results that may help.
{"compound": "CC[C@@H]1COC[C@@H](N(C)C(=O)C(=O)N(C)C)c2nc(C(=O)NCc3ccc(F)cc3)c(O)c(=O)n21", "observed": 13}
{"compound": "CN(C)C(=O)C(=O)N(C)C1CCCCn2c1nc(C(=O)NCc1ccc(F)cc1)c(O)c2=O (single isomer, unassigned; (-)) [Compound Y, reference compound]", "observed": 15}
{"compound": "CO[C@]1(C)CC[C@@H](N(C)C(=O)C(=O)N(C)C)c2nc(C(=O)NCc3ccc(F)c(C)c3)c(O)c(=O)n2C1", "observed": 2}

Okay, now this compound:
Prompt line: Return reported Number of fold shift in IC50 versus wild type IIIB, N155H; argument: "Cc1cc(CNC(=O)c2nc3n(c(=O)c2O)[C@@H](C)COC[C@@H]3N(C)C(=O)C(=O)N(C)C)ccc1F"
Response line: 2

---

# System: virus containing G140S/Q148H mutation in the integrase gene
# condition-parameters: k = IC50(mutant)/IC50(wild type)
recorded-metric: Number of fold shift in IC50 versus wild type IIIB, G140S/Q148H
Answer using only a numeral; do not append any unit.

The following compounds have reported results that may help.
{"compound": "Cc1ccc(CNC(=O)c2nc3n(c(=O)c2O)C(C)CCCC3N(C)C(=O)C(=O)N(C)C)cc1F (single isomer, unassigned) [Compound 3B]", "observed": 2}
{"compound": "CC[C@H]1COC[C@H](N(C)C(=O)C(=O)N(C)C)c2nc(C(=O)NCc3ccc(F)cc3)c(O)c(=O)n21 [Compound 5B]", "observed": 11}

Prompt line: GET /values?readout=Number of fold shift in IC50 versus wild type IIIB, G140S/Q148H&system=virus containing G140S/Q148H mutation in the integrase gene&item= Cc1cc(CNC(=O)c2nc3n(c(=O)c2O)[C@H](C)COC[C@@H]3N(C)C(=O)C(=O)N(C)C)ccc1F [Compound 4C]
Response line: 11

---

# Test system: virus containing Y143R mutation in the integrase gene
# condition-parameters: k = IC50(mutant)/IC50(wild type)
recorded-metric: Number of fold shift in IC50 versus wild type IIIB, Y143R

{"molecule": "COC1(C)CCC(N(C)C(=O)C(=O)N(C)C)c2nc(C(=O)NCc3ccc(F)c(C)c3)c(O)c(=O)n2C1 (single isomer, unassigned) [Compound 2C]", "target-or-test-system": "virus containing Y143R mutation in the integrase gene", "observed": 3}
{"molecule": "Cc1nnc(C(=O)NC(C)(C)c2nc(C(=O)NCc3ccc(F)cc3)c(O)c(=O)n2C)o1 [Compound X, raltegravir, reference compound]", "target-or-test-system": "virus containing Y143R mutation in the integrase gene", "observed": 15}
{"molecule": "CO[C@@]1(C)CC[C@H](N(C)C(=O)C(=O)N(C)C)c2nc(C(=O)NCc3ccc(F)c(C)c3)c(O)c(=O)n2C1", "target-or-test-system": "virus containing Y143R mutation in the integrase gene", "observed": 3}
{"molecule": "CCN(C(=O)C(=O)N(C)C)[C@H]1CC[C@H](OC)Cn2c1nc(C(=O)NCc1ccc(F)cc1)c(O)c2=O", "target-or-test-system": "virus containing Y143R mutation in the integrase gene", "observed": ">100"}
{"molecule": "CC[C@H]1COC[C@H](N(C)C(=O)C(=O)N(C)C)c2nc(C(=O)NCc3ccc(F)cc3)c(O)c(=O)n21", "target-or-test-system": "virus containing Y143R mutation in the integrase gene", "observed": 2}

Okay, now this molecule:
Prompt line: Return reported Number of fold shift in IC50 versus wild type IIIB, Y143R; argument: "Cc1cc(CNC(=O)c2nc3n(c(=O)c2O)CC(C)(C)CC[C@@H]3N(C)C(=O)C(=O)N(C)C)ccc1F"
Response line: 1

---

# reported IC50; entries follow
# target-or-test-system: recombinant integrase (HIV-1 integrase) (Human immunodeficiency virus type 1 group M subtype B, UniProt P04585)
# Construct: Assays for the strand transfer activity of integrase were conducted in accordance with WO 02/30930 for recombinant integrase
# experimental-details: HIV-1 integrase assay: strand transfer catalyzed by recombinant integrase
# Type: biochemical
# condition-parameters: IC50 (nM), strand transfer activity
Output spec: scalar in nM, unitless text.

The following compounds have reported results that may help.
{"compound": "COC1(C)CCC(N(C)C(=O)C(=O)N(C)C)c2nc(C(=O)NCc3ccc(F)c(C)c3)c(O)c(=O)n2C1 (single isomer, unassigned) [Compound 2D]", "unit-of-measurement": "nM", "IC50": 46}
{"compound": "Cc1ccc(CNC(=O)c2nc3n(c(=O)c2O)C(C)CCCC3N(C)C(=O)C(=O)N(C)C)cc1F (single isomer, unassigned)", "unit-of-measurement": "nM", "IC50": 44}
{"compound": "CO[C@@]1(C)CC[C@H](N(C)C(=O)C(=O)N(C)C)c2nc(C(=O)NCc3ccc(F)c(C)c3)c(O)c(=O)n2C1", "unit-of-measurement": "nM", "IC50": 41}

Okay, now this compound:
Prompt line: Return reported IC50; argument: COC1(C)CCC(N(C)C(=O)C(=O)N(C)C)c2nc(C(=O)NCc3ccc(F)c(C)c3)c(O)c(=O)n2C1 (single isomer, unassigned) [Compound 2C]
Response line: 73

---

# reported Number of fold shift in IC50 versus wild type IIIB, N155H; entries follow
# Test system: virus containing N155H mutation in the integrase gene
# condition-parameters: k = IC50(mutant)/IC50(wild type)
Answer using only a numeral; do not append any unit.

The following compounds have reported results that may help.
{"compound": "Cc1cc(CNC(=O)c2nc3n(c(=O)c2O)[C@H](C)COC[C@H]3N(C)C(=O)C(=O)N(C)C)ccc1F", "observed": 8}
{"compound": "CC1(C)OCCn2c1nc(C(=O)NCc1ccc(F)cc1)c(O)c2=O [Compound Z, reference compound]", "observed": 32}
{"compound": "CCN(C(=O)C(=O)N(C)C)[C@H]1CC[C@H](OC)Cn2c1nc(C(=O)NCc1ccc(F)cc1)c(O)c2=O", "observed": 13}

Okay, now this compound:
Prompt line: GET /values?readout=Number of fold shift in IC50 versus wild type IIIB, N155H&system=virus containing N155H mutation in the integrase gene&item= "CC[C@H]1COC[C@H](N(C)C(=O)C(=O)N(C)C)c2nc(C(=O)NCc3ccc(F)cc3)c(O)c(=O)n21"
Response line: 3
